Each recorded value in this set is attributed to patent US9969687B2.

- Experimental Target: UniProt:P51686
- Sequence (P51686 whole entry): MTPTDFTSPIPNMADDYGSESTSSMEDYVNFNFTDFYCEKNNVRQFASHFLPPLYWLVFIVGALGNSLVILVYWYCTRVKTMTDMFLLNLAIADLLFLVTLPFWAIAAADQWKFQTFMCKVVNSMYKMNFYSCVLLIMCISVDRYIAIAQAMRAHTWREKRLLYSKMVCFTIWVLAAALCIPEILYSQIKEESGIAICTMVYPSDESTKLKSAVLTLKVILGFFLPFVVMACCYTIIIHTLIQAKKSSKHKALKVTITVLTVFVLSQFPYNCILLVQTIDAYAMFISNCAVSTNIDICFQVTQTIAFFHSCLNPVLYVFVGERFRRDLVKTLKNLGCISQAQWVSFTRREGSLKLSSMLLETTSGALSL
- Protocol Description: FLIPR calcium flux assay using MOLT4 cells, TECK stimulation
- Format: cell-based
- Condition Details: MOLT4 cells (human T-cell line)
- Description: Biological Activity: FLIPR Assay Using MOLT4 Cells A calcium flux assay was used to determine the ability of the compounds to interfere with the binding between CCR9 and its chemokine ligand (TECK) in MOLT4 cells (a human T-cell line). […] The increased in intracellular calcium levels was measured with the FLIPR instrument. The potency of the compound as CCR9 antagonist was calculated as an IC50 using GraphPad Prism software (variable slope four parameter). […]
Please use 1 for Ki under 40 nM and 0 for everything else, ties included.

Exercise: I'd appreciate it if you could check whether `COc1c(N2C(=O)c3c(Cl)ccc(NS(=O)(=O)c4ccc(C(C)(C)C)cc4)c3C2=O)ccc[n+]1[O-]` has Ki smaller than 40 nM.
Solution: 1

Exercise: Is 40 nM strictly greater than the compound's reported Ki? compound: CC(Cc1cccnc1)N1C(=O)c2c(Cl)ccc(NS(=O)(=O)c3ccc(C(C)(C)C)cc3)c2C1=O (centres unmarked)
Solution: 0

Exercise: I'd appreciate it if you could check whether `CCc1c(OC)cncc1N1C(=O)c2c(Cl)ccc(NS(=O)(=O)c3ccc(C(C)(C)C)cc3)c2C1=O` has Ki smaller than 40 nM.
Solution: 1

Exercise: Would you kindly verify if Ki of `Cc1cncc(CN2C(=O)c3c(Cl)ccc(NS(=O)(=O)c4ccc(C(C)(C)C)cc4)c3C2=O)c1` is strictly less than 40 nM?
Solution: 1
